# target-of-assay: Fuc(a1-2)Gal(b1-4)GlcNAc(b1-2)Man(a1-3)[Fuc(a1-2)Gal(b1-4)GlcNAc(b1-2)Man(a1-6)]Man(b1-4)GlcNAc(b1-4)[Fuc(a1-6)]GlcNAc
# experiment-summary: glycan array binding signal (z-score within array); higher = stronger binding
# experimental-parameters: glycan notation: IUPAC condensed, linker removed
The full list was thinned out, with the strongest signals kept by preference.
Answer each item with its documented glycan array binding signal (z-score).
Answers are plain numbers.

binder	glycan array binding signal (z-score)
RsaA-N-term (Caulobacter crescentus), P35828 (protein) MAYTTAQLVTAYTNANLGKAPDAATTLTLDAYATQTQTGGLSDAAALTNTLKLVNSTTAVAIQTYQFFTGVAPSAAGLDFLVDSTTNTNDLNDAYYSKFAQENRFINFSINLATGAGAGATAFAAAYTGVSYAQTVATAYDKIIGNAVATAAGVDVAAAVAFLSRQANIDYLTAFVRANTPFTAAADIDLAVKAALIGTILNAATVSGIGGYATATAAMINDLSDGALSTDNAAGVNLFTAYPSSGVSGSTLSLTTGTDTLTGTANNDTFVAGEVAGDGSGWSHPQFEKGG	7.05

// next item, glycan array binding signal (z-score) requested
Entry DrGal3 (Danio rerio) (protein) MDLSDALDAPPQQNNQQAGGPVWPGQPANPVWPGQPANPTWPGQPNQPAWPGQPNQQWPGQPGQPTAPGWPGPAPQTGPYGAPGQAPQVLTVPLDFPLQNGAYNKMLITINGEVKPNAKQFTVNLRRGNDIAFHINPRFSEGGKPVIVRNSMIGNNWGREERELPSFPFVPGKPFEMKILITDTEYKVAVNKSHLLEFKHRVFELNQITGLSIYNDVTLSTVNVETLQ needs its glycan array binding signal (z-score) filled in; supply it.
-0.209

Hello, the source for this data is the supplement of paper PMC8728848, in case you need it.
